Source listed as ChEMBL document CHEMBL5058577.

# System: Fibroblast
# testSummary: Multiplex assay against human fibroblast
# Type: toxicity, cell-based
# details: 48 h, 1 µM, compound concentration 1 uM, replicate 1
observable: Population Tubulin-Different-Phenotype (%)

compound: CC(C)(C)c1ccc(S(=O)(=O)Nc2ccc(Cl)cc2C(=O)c2cc[n+]([O-])cc2)cc1
targetDesc: Fibroblast
measuredResult: 25
//
compound: N#Cc1c(N)nc(SCc2csc(-c3ccc(Cl)cc3)n2)c(C#N)c1-c1ccc(OCCO)cc1
targetDesc: Fibroblast
measuredResult: 37
//
compound: CNC[C@H](O)c1ccc(O)c(O)c1 [EPINEPHRINE]
targetDesc: Fibroblast
measuredResult: 23
//
compound: CC1(COc2ccc3c(c2)ncn3-c2ccc3cccc(N4CCC(N)CC4)c3n2)COC1
targetDesc: Fibroblast
measuredResult: 55

###

# Tested on: Fibroblast
# testSummary: Multiplex assay against human fibroblast
# Type: toxicity, cell-based
# details: 24 h, 1 µM, compound concentration 1 uM, replicate 2
# Population Tubulin-Different-Phenotype (%) listing for each entry below
observable: Population Tubulin-Different-Phenotype (%)

compound: Cl.Clc1ccc2nsnc2c1NC1=NCCN1 [TIZANIDINE HYDROCHLORIDE]
measuredResult: 50
//
compound: COc1ccc2c(c1)C(C(=O)N(Cc1ccc(N(C)C)cc1)c1ccc(C(C)C)cc1)CCC2.Cl (centres undefined)
measuredResult: 41
//
compound: CN(C)c1ccnc2sc3c(=O)n(N4CCCCCC4)cnc3c12
measuredResult: 49
//
compound: O=C(O)Cc1ccccc1Nc1c(Cl)cccc1Cl [DICLOFENAC]
measuredResult: 50

###

# System: Fibroblast
# testSummary: Multiplex assay against human fibroblast
# Type: toxicity, cell-based
# details: 24 h, 1 µM, compound concentration 1 uM, replicate 1
observable: Population Fragmented Nuclei (%)

molecule: N#Cc1c(N)nc(SCc2csc(-c3ccc(Cl)cc3)n2)c(C#N)c1-c1ccc(OCCO)cc1
measuredResult: 11

molecule: c1cc(OCCCN2CCCCC2)ccc1CN1CCCCC1
measuredResult: 18

molecule: CNC[C@H](O)c1ccc(O)c(O)c1 [EPINEPHRINE]
measuredResult: 12

molecule: Cc1ccc(C(C)(O)c2nc3ccccc3s2)c(C)c1 (configuration not stated)
measuredResult: 13

molecule: CN1CCN2c3ncccc3Cc3ccccc3C2C1 (configuration not stated)
measuredResult: 7

molecule: COc1c(C)cc(NC(=O)c2nn(Cc3ccc(F)cc3)c3c2CN(C(=O)c2ccc[nH]2)C[C@]3(C)C(N)=O)cc1C
measuredResult: 25

molecule: N[C@@]1(C(=O)O)CO[C@H]2[C@H](C(=O)O)[C@H]21
measuredResult: 16

molecule: O=C(O)Cc1ccccc1Nc1c(Cl)cccc1Cl
measuredResult: 15

molecule: CCOc1c2c(c(OCC)c3ncccc13)CN(c1ccc(CS(=O)(=O)NC(=O)Cc3ccccc3OC)cc1C)C2=O
measuredResult: 13

molecule: O=C1COc2nccc(-c3ccccc3F)c2CN1Cc1cc(C(F)(F)F)cc(C(F)(F)F)c1
measuredResult: 11

molecule: CN(C)CCCc1cc(C(=O)Nc2ccc(-c3ccncc3)cc2)ccc1O.Cl.Cl
measuredResult: 16

molecule: CCCC(CCC)C(=O)O
measuredResult: 11

###

# Tested on: U2OS
# testSummary: Multiplex assay against U2OS
# Type: toxicity, cell-based
# details: human, 48 h, 1 µM, compound concentration 1 uM, replicate 2

molecule: Cc1ccc(-c2ccc(F)cc2COc2ccc(CCC(=O)O)cc2)cc1
targetDesc: U2OS
unitText: %
Population Mitotic Cells (%): 5
//
molecule: O=C(NCCO)c1cccc(-c2cc(Nc3ccc(OC(F)(F)F)cc3)ncn2)c1
targetDesc: U2OS
unitText: %
Population Mitotic Cells (%): 3
//
molecule: COc1ccc2c(c1)C(C(=O)N(Cc1ccc(N(C)C)cc1)c1ccc(C(C)C)cc1)CCC2.Cl (stereo not given)
targetDesc: U2OS
unitText: %
Population Mitotic Cells (%): 6
//
molecule: O=S(=O)(c1ccccc1)c1cnc2c(N3CCNCC3)cccc2c1 [INTEPIRDINE]
targetDesc: U2OS
unitText: %
Population Mitotic Cells (%): 23
//
molecule: CN1CCN2c3ncccc3Cc3ccccc3C2C1 (stereo not given)
targetDesc: U2OS
unitText: %
Population Mitotic Cells (%): 7

###

# Test system: HEK-293T
# testSummary: Multiplex assay against HEK293T
# Format: toxicity, cell-based
# details: human, 24 h, 10 µM, compound concentration 10 uM, replicate 2

compound: O=C1COc2nccc(-c3ccccc3F)c2CN1Cc1cc(C(F)(F)F)cc(C(F)(F)F)c1
Population Pyknosed Nuclei (%): 12
--
compound: CC(=O)NCCc1c(Cc2ccccc2)[nH]c2ccccc12
Population Pyknosed Nuclei (%): 11
--
compound: Cc1ccccc1C(=O)Nc1ccc(C(=O)N2CCCC(N(C)C)c3ccccc32)cc1.Cl (stereo unspecified)
Population Pyknosed Nuclei (%): 18
--
compound: C[C@H]1[C@H]2CC[C@H]3[C@@H]4CC=C5C[C@@H](N(C)C)CC[C@]5(C)[C@H]4CC[C@]23CN1C
Population Pyknosed Nuclei (%): 7
--
compound: Cc1ccc(C(C)(O)c2nc3ccccc3s2)c(C)c1 (stereo unspecified)
Population Pyknosed Nuclei (%): 10
--
compound: C[C@H](NC(=O)c1c(C(F)F)nn(C)c1Oc1cccc(C(F)(F)F)c1)c1ccc(C(=O)O)cc1
Population Pyknosed Nuclei (%): 13

###

# Test system: Fibroblast
# testSummary: Multiplex assay against human fibroblast
# Assay type: toxicity, cell-based
# details: 24 h, 1 µM, compound concentration 1 uM, replicate 2
# Population Mitotic Cells (%) listing for each entry below
observable: Population Mitotic Cells (%)

smilesNotation: CCCn1c(=O)c2[nH]c(C3CCCC3)nc2n(CCC)c1=O
targetDesc: Fibroblast
observable: Population Mitotic Cells (%)
measuredResult: 24

smilesNotation: COc1cc(C(=O)N(CCCc2ccccc2)Cc2ccc(CC(=O)O)cc2)cc(OC)c1C
targetDesc: Fibroblast
observable: Population Mitotic Cells (%)
measuredResult: 48

smilesNotation: CC[C@H]1OC(=O)[C@H](C)[C@@H](O[C@H]2C[C@@](C)(OC)[C@@H](O)[C@H](C)O2)[C@H](C)[C@@H](O[C@@H]2O[C@H](C)C[C@H](N(C)C)[C@H]2O)[C@@]2(C)CC(C)=C(O2)[C@H](C)[C@@H](O)[C@]1(C)O
targetDesc: Fibroblast
observable: Population Mitotic Cells (%)
measuredResult: 53

smilesNotation: O=C(NCCO)c1cccc(-c2cc(Nc3ccc(OC(F)(F)F)cc3)ncn2)c1
targetDesc: Fibroblast
observable: Population Mitotic Cells (%)
measuredResult: 47

###

# System: HEK-293T
# testSummary: Multiplex assay against HEK293T
# Assay type: toxicity, cell-based
# details: human, 24 h, 10 µM, compound concentration 10 uM, replicate 1
# Population Membrane Permeable-Phenotype (%) listing for each entry below
observable: Population Membrane Permeable-Phenotype (%)

smilesNotation: C[C@H]1[C@H]2CC[C@H]3[C@@H]4CC=C5C[C@@H](N(C)C)CC[C@]5(C)[C@H]4CC[C@]23CN1C
measuredResult: 1

smilesNotation: CC(=O)NCCc1c(Cc2ccccc2)[nH]c2ccccc12
measuredResult: 1

smilesNotation: Cc1nc2ccc(Oc3ccc(F)cc3)cc2c(=O)n1C[C@H]1CCCN(C(C)C)C1.Cl
measuredResult: 3

###

# System: HEK-293T
# testSummary: Multiplex assay against HEK293T
# Format: toxicity, cell-based
# details: human, 12 h, 10 µM, compound concentration 10 uM, replicate 1
# Population Normal (%) listing for each entry below

molecule: COc1cc(NC(=O)CCN2CCC(OC(=O)Nc3ccccc3-c3ccccc3)CC2)c(Cl)cc1CNC[C@H](O)c1ccc(O)c2[nH]c(=O)ccc12
targetDesc: HEK-293T
unitText: %
Population Normal (%): 68

molecule: CCCN1CCC[C@@H]2Cc3n[nH]cc3C[C@H]21.Cl [QUINPIROLE HYDROCHLORIDE]
targetDesc: HEK-293T
unitText: %
Population Normal (%): 90

molecule: C[C@H]1[C@H]2CC[C@H]3[C@@H]4CC=C5C[C@@H](N(C)C)CC[C@]5(C)[C@H]4CC[C@]23CN1C
targetDesc: HEK-293T
unitText: %
Population Normal (%): 93

molecule: O=S(=O)(c1ccccc1)c1cnc2c(N3CCNCC3)cccc2c1 [INTEPIRDINE]
targetDesc: HEK-293T
unitText: %
Population Normal (%): 89

molecule: CCNC1(C(N)=O)CCN(c2ncnc3c2nc(-c2ccccc2Cl)n3-c2ccc(Cl)cc2)CC1
targetDesc: HEK-293T
unitText: %
Population Normal (%): 83

molecule: O=C1COc2nccc(-c3ccccc3F)c2CN1Cc1cc(C(F)(F)F)cc(C(F)(F)F)c1
targetDesc: HEK-293T
unitText: %
Population Normal (%): 90

molecule: CN1CCN(c2nc3cc(C(F)(F)F)ccc3n3cccc23)CC1.O=C(O)/C=C\C(=O)O.O=C(O)/C=C\C(=O)O
targetDesc: HEK-293T
unitText: %
Population Normal (%): 85

molecule: CCOc1c2c(c(OCC)c3ncccc13)CN(c1ccc(CS(=O)(=O)NC(=O)Cc3ccccc3OC)cc1C)C2=O
targetDesc: HEK-293T
unitText: %
Population Normal (%): 95

molecule: Cc1ccc(F)cc1C(=O)Nc1ccc(C(=O)N2Cc3cccn3Cc3ccccc32)c(Cl)c1
targetDesc: HEK-293T
unitText: %
Population Normal (%): 89

molecule: CCCn1c(=O)c2[nH]c(C3CCCC3)nc2n(CCC)c1=O
targetDesc: HEK-293T
unitText: %
Population Normal (%): 94

molecule: Cc1ccccc1C(=O)Nc1ccc(C(=O)N2CCCC(N(C)C)c3ccccc32)cc1.Cl (centres undefined)
targetDesc: HEK-293T
unitText: %
Population Normal (%): 91

molecule: c1cc(OCCCN2CCCCC2)ccc1CN1CCCCC1
targetDesc: HEK-293T
unitText: %
Population Normal (%): 92

molecule: CNC[C@H](O)c1ccc(O)c(O)c1 [EPINEPHRINE]
targetDesc: HEK-293T
unitText: %
Population Normal (%): 90

molecule: CC(C)(C)c1ccc(S(=O)(=O)Nc2ccc(Cl)cc2C(=O)c2cc[n+]([O-])cc2)cc1
targetDesc: HEK-293T
unitText: %
Population Normal (%): 93

molecule: COc1ccc2c(c1)C(C(=O)N(Cc1ccc(N(C)C)cc1)c1ccc(C(C)C)cc1)CCC2.Cl (centres undefined)
targetDesc: HEK-293T
unitText: %
Population Normal (%): 89

molecule: O=C(NCCO)c1cccc(-c2cc(Nc3ccc(OC(F)(F)F)cc3)ncn2)c1
targetDesc: HEK-293T
unitText: %
Population Normal (%): 89

molecule: CCCC(CCC)C(=O)O
targetDesc: HEK-293T
unitText: %
Population Normal (%): 93

molecule: Cl.Clc1ccc2nsnc2c1NC1=NCCN1 [TIZANIDINE HYDROCHLORIDE]
targetDesc: HEK-293T
unitText: %
Population Normal (%): 93

molecule: N[C@@]1(C(=O)O)CO[C@H]2[C@H](C(=O)O)[C@H]21
targetDesc: HEK-293T
unitText: %
Population Normal (%): 91
